Reference source for all entries: paper PMC6422671

measurement_description: Plasma pharmacokinetics after single oral dose, phase I; data geometric mean (coefficient of variation), t max median (range)
Type: in vivo, healthy men
condition_description: male, human, plasma, oral, 15 mg, 15 mg fasted; read-out: t 1/2λz (converted)
measured_metric: half-life (h)
Give just the numeric value; h need not be written.

Exercise: Give the measured half-life for "C[C@@H](N)c1cc(Cl)ccc1Cn1c(=S)[nH]c(=O)c2[nH]ccc21"
Solution: 45.2

----------
measurement_description: Urinary pharmacokinetics after single oral dose, phase I
Type: in vivo, healthy men
condition_description: male, human, urine, 45 mg, 45 mg fasted, geometric mean (CV), read-out: CLR (converted)
measured_metric: CL renal
The number alone won't do; follow it with the unit.

Exercise: Give the reported CL renal for this molecule. C[C@@H](N)c1cc(Cl)ccc1Cn1c(=S)[nH]c(=O)c2[nH]ccc21 [AZD4831]
Solution: 162 mL/min
